experiment: Peptide content (assay) of lyophilized drug product by UPLC-UV at 220 nm, conventional method (peptide as reference standard)
Format: physicochemical
study conditions: DP-5P batch, T60M, conventional method (peptide as RS)
Assign Label claim (% target 0.40 mg/vial) to each entry below.
Your answer should be a plain number; it is taken to be in %.

Exam item: Request the reported Label claim (% target 0.40 mg/vial) associated with LYCYEQLNDSSEEEDEIDGPAGQAEPDRAHYNIVT (Peptide 2)
Marked response: 104

Exam item: For RCINCQKPLCPEEKQRHLDKKQRFHNIRGRWT (Peptide 4) then?
Marked response: 98

Exam item: Input DKCLKFYSKISEYRHYCYSLYGTTL (Peptide 1)
Marked response: 102

Exam item: // query: MHGDTPTLHEYMLDLQPETTDLYCYEQLNDSSEEE [Peptide 3]
Marked response: 104

Exam item: Could you do the same for TLRLCVQSTHVDIRTLEDLLMGTLGIVCPICSQKP (Peptide 5) , please?
Marked response: 100

====

experiment: Peptide content (assay) of lyophilized drug product by UPLC-UV at 220 nm, method according to the invention (USP reserpine reference standard, RRF)
Type: physicochemical
study conditions: DP-5P batch, T54M, method according to the invention (USP RS)
Record form. Attribute: Label claim (% target 0.40 mg/vial). Fill in for each entry.
Give the quantity in %, number only.

Exam item: // Label claim (% target 0.40 mg/vial) lookup, key: MHGDTPTLHEYMLDLQPETTDLYCYEQLNDSSEEE [Peptide 3]
Marked response: 95

Exam item: Moving on to the next sequence: DKCLKFYSKISEYRHYCYSLYGTTL (Peptide 1)
Marked response: 98

Exam item: Param item: RCINCQKPLCPEEKQRHLDKKQRFHNIRGRWT (Peptide 4)
Marked response: 99

Exam item: Also LYCYEQLNDSSEEEDEIDGPAGQAEPDRAHYNIVT (Peptide 2) , if possible.
Marked response: 98

Exam item: Ok, now TLRLCVQSTHVDIRTLEDLLMGTLGIVCPICSQKP (Peptide 5)
Marked response: 101

====

experiment: Peptide content (assay) of lyophilized drug product by UPLC-UV at 220 nm, method according to the invention (USP reserpine reference standard, RRF)
Format: physicochemical
study conditions: DP-5P batch, T60M, method according to the invention (USP RS)
experimental endpoint: Assay (mg/vial)
Your reply should be a number followed by the unit it is expressed in.

Exam item: Name the reported Assay (mg/vial) value associated with the sequence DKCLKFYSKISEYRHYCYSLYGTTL (Peptide 1)
Marked response: 0.3701 mg/vial

Exam item: Another sequence: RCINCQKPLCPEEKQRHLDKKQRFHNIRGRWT (Peptide 4)
Marked response: 0.3842 mg/vial

Exam item: Another sequence to check: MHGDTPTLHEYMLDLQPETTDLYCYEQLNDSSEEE [Peptide 3]
Marked response: 0.3883 mg/vial

Exam item: Input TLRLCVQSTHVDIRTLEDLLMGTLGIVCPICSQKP (Peptide 5)
Marked response: 0.3968 mg/vial

Exam item: Similarly, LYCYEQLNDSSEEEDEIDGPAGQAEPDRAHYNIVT (Peptide 2) ?
Marked response: 0.3880 mg/vial

====

experiment: Peptide content (assay) of lyophilized drug product by UPLC-UV at 220 nm, method according to the invention (USP reserpine reference standard, RRF)
Type: physicochemical
study conditions: DP-7P batch, T60M, method according to the invention (USP RS)
experimental endpoint: Assay (mg/vial)
Record the value in mg/vial, omitting the unit from your answer.

Exam item: Find the recorded Assay (mg/vial) belonging to YGTTLEQQYNKPLCDLLIRCINCQKPLCPEEK (Peptide 12) and report it.
Marked response: 0.4010

Exam item: Please do the same for DKKQRFHNIRGRWTGRCMSCCRSSRTRRETQL (Peptide 6) as well.
Marked response: 0.4010

Exam item: Another sequence to check: MHQKRTAMFQ QERPRKLPQLCTELQTTIHD (MHQKRTAMFQQERPRKLPQLCTELQTTIHD; Peptide 10)
Marked response: 0.3945

Exam item: What would you report for LPQLCTELQTTIHDIILECVYCKQQLLRREVY (Peptide 9) ?
Marked response: 0.3700

Exam item: Same thing, different sequence: KQQLLRREVYDFAFRDLCIVYRDGN (Peptide 8)
Marked response: 0.3900

Exam item: Do the same for RDLCIVYRDGNPYAVCDKCLKFYSKI (Peptide 11) please
Marked response: 0.3788

Exam item: Follow-up entry: HYCYSLYGTTLEQQYNKPLCDLLIR (Peptide 7)
Marked response: 0.3967

====

experiment: Peptide content (assay) of lyophilized drug product by UPLC-UV at 220 nm, conventional method (peptide as reference standard)
Assay type: physicochemical
study conditions: DP-7P batch, T48M, conventional method (peptide as RS)
Could you please report measured Assay (mg/vial) for the items listed next?
// units = mg/vial; emit number, no label

Exam item: Any idea what Assay (mg/vial) was measured for LPQLCTELQTTIHDIILECVYCKQQLLRREVY (Peptide 9) ?
Marked response: 0.4325

Exam item: Would you kindly repeat that for DKKQRFHNIRGRWTGRCMSCCRSSRTRRETQL (Peptide 6) ?
Marked response: 0.4390

Exam item: Same question for YGTTLEQQYNKPLCDLLIRCINCQKPLCPEEK (Peptide 12) please.
Marked response: 0.4323

Exam item: And for HYCYSLYGTTLEQQYNKPLCDLLIR (Peptide 7) ?
Marked response: 0.4279

Exam item: What would you report for KQQLLRREVYDFAFRDLCIVYRDGN (Peptide 8) ?
Marked response: 0.4323

Exam item: Queued: RDLCIVYRDGNPYAVCDKCLKFYSKI (Peptide 11)
Marked response: 0.4293

Exam item: Can you check MHQKRTAMFQ QERPRKLPQLCTELQTTIHD (MHQKRTAMFQQERPRKLPQLCTELQTTIHD; Peptide 10) next?
Marked response: 0.4329

====

experiment: Peptide content (assay) of lyophilized drug product by UPLC-UV at 220 nm, conventional method (peptide as reference standard)
Format: physicochemical
study conditions: DP-7P batch, T48M, conventional method (peptide as RS)
experimental endpoint: Label claim (% target 0.40 mg/vial)
Hey, just the number and the unit after it is fine.

Exam item: For the sequence shown here, KQQLLRREVYDFAFRDLCIVYRDGN (Peptide 8) , give the reported Label claim (% target 0.40 mg/vial).
Marked response: 108%

Exam item: Can you check RDLCIVYRDGNPYAVCDKCLKFYSKI (Peptide 11) next?
Marked response: 107%

Exam item: Repeat with LPQLCTELQTTIHDIILECVYCKQQLLRREVY (Peptide 9)
Marked response: 108%

Exam item: DKKQRFHNIRGRWTGRCMSCCRSSRTRRETQL (Peptide 6) , same question.
Marked response: 110%

Exam item: Again, but for MHQKRTAMFQ QERPRKLPQLCTELQTTIHD (MHQKRTAMFQQERPRKLPQLCTELQTTIHD; Peptide 10)
Marked response: 108%

Exam item: Continue with HYCYSLYGTTLEQQYNKPLCDLLIR (Peptide 7)
Marked response: 107%

Exam item: Consider next the sequence YGTTLEQQYNKPLCDLLIRCINCQKPLCPEEK (Peptide 12) in the same way.
Marked response: 108%

====

experiment: Peptide content (assay) of lyophilized drug product by UPLC-UV at 220 nm, conventional method (peptide as reference standard)
Format: physicochemical
study conditions: DP-7P batch, T0M, conventional method (peptide as RS)
Consider the following sequences; for each one, report its Label claim (% target 0.40 mg/vial).
Write the number in % without appending the unit.

Exam item: // lookup Label claim (% target 0.40 mg/vial) for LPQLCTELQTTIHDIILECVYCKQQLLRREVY (Peptide 9)
Marked response: 108

Exam item: Consider next the sequence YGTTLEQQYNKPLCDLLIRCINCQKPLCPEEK (Peptide 12) in the same way.
Marked response: 107

Exam item: Follow-up entry: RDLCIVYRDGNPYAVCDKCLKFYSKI (Peptide 11)
Marked response: 106

Exam item: Try the sequence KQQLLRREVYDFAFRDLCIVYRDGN (Peptide 8)
Marked response: 109

Exam item: Cool, now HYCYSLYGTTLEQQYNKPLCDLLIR (Peptide 7)
Marked response: 107

Exam item: Would you kindly repeat that for MHQKRTAMFQ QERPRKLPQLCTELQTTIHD (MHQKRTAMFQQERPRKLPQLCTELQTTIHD; Peptide 10) ?
Marked response: 105

Exam item: # repeat for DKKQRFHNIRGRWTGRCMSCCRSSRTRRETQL (Peptide 6)
Marked response: 108

====

experiment: Peptide content (assay) of lyophilized drug product by UPLC-UV at 220 nm, method according to the invention (USP reserpine reference standard, RRF)
Assay type: physicochemical
study conditions: DP-7P batch, T54M, method according to the invention (USP RS)
experimental endpoint: Label claim (% target 0.40 mg/vial) (%)
The figure you give is taken to be in %; do not add the unit.

Exam item: Looking for the measured Label claim (% target 0.40 mg/vial) of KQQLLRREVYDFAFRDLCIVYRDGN (Peptide 8) , can you help?
Marked response: 98

Exam item: Now try MHQKRTAMFQ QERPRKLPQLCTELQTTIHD (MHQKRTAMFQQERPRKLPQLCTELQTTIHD; Peptide 10) .
Marked response: 99

Exam item: Next sequence up: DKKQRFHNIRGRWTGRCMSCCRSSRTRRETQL (Peptide 6)
Marked response: 101

Exam item: Next sequence up: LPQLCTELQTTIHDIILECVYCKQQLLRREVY (Peptide 9)
Marked response: 93

Exam item: Subsequent entry: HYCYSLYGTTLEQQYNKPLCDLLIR (Peptide 7)
Marked response: 99

Exam item: Ok, now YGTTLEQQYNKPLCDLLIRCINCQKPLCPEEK (Peptide 12)
Marked response: 101

Exam item: Also, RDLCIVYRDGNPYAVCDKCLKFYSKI (Peptide 11) please.
Marked response: 95
